Test system: human skin
Test Summary: Skin irritation test of active ingredient (patch method, CTFA guidelines)
Format: in vivo
Condition Set: 0.5 wt %, 20 people, patch 24 hours; (−): No erythema or particularly no symptoms
Property: Test result(number of subject) (−)
Write the value as a bare number.

Query: # query: Test result(number of subject) (−) of entry O=C(O)c1cncc(N2CCCN(c3cncc(C(=O)O)c3)CCN(c3cncc(C(=O)O)c3)CCCN(c3cncc(C(=O)O)c3)CC2)c1 [Embodiment 11]
Reply: 20

Query: # query: Test result(number of subject) (−) of entry O=C(O)CN1CCN(CC(=O)O)CCN(CC(=O)O)CCN(CC(=O)O)CC1 [Embodiment 5]
Reply: 20

Query: # query: Test result(number of subject) (−) of entry O=C(O)c1ccc(N(CCN(CCN(c2ccc(C(=O)O)o2)c2ccc(C(=O)O)o2)c2ccc(C(=O)O)o2)CCN(c2ccc(C(=O)O)o2)c2ccc(C(=O)O)o2)o1 [Embodiment 4]
Reply: 20

Query: # query: Test result(number of subject) (−) of entry NCCNCCNCCN [Trientine, Triethylenetetramine, reference compound]
Reply: 19

Data credit: patent US11090247B2
